molecular target: Lanosterol 14-alpha demethylase (Candida albicans (strain SC5314 / ATCC MYA-2876) (Yeast)); test: Inhibition of CYP51 in Candida albicans SC5314 assessed as eburicol content at 8 ug/ml after 16 hrs by GC/MS analysis relative to control; set-up: scale not given: the % may be the effect or the level left; conditions: candida albicans sc5314, 16 h
measure_name: Activity
Kindly write the number and append the unit.

>>> endpoint_result("O=C(NCCc1ccncc1)c1cnc2c(F)cccc2c1O")
"54.7%"

For each of the compounds below, state Activity.
1. COc1cccc(NC(=S)N(CCN(C)C)[C@@H](C)c2ccncc2)c1
2. OC(Cn1cncn1)(Cn1cncn1)c1ccc(F)cc1F
3. Nc1c(/C=N/NC(=O)c2ccncc2)ccc2c1C(=O)c1ccccc1C2=O

Response line:
59%
67.2%
63.4%

---

Record form. Attribute: Activity. Fill in for each entry.
target: Lanosterol 14-alpha demethylase (Candida albicans (strain SC5314 / ATCC MYA-2876) (Yeast), UniProt P10613); experiment: Inhibition of CYP51 in Candida albicans SC5314 assessed as obtusifoliol content at 8 ug/ml after 16 hrs by GC/MS analysis relative to control; set-up: scale not given: the % may be the effect or the level left; conditions: candida albicans sc5314, 16 h
Sequence (P10613 whole entry): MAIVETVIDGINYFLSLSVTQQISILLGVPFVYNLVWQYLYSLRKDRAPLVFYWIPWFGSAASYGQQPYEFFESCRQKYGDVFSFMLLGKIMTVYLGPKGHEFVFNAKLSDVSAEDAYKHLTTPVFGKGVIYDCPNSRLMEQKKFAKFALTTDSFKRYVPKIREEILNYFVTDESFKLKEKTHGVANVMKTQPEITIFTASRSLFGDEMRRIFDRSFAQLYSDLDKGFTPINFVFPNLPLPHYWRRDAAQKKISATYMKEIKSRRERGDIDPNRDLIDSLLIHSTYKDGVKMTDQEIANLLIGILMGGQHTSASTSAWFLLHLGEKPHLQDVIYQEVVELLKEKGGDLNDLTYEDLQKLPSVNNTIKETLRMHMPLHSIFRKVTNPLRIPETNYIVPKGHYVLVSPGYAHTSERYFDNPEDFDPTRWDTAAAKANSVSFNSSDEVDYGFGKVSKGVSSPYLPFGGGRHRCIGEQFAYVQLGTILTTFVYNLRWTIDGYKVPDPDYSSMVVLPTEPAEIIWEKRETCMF
One number for each entry, in %.

For each of the molecules below, state Activity.
1. O=C(NCCc1ccncc1)c1cnc2c(F)cccc2c1O
2. COc1cccc(NC(=S)N(CCN(C)C)[C@@H](C)c2ccncc2)c1
3. OC(Cn1cncn1)(Cn1cncn1)c1ccc(F)cc1F
4. Nc1c(/C=N/NC(=O)c2ccncc2)ccc2c1C(=O)c1ccccc1C2=O

Response line:
1. 8.2
2. 7.1
3. 6.3
4. 7.4

---

Record form. Attribute: Activity. Fill in for each entry.
target: Lanosterol 14-alpha demethylase (Candida albicans (strain SC5314 / ATCC MYA-2876) (Yeast), UniProt P10613); experiment: Inhibition of CYP51 in Candida albicans SC5314 assessed as lanosterol content at 8 ug/ml after 16 hrs by GC/MS analysis (reference value: 3.9%); set-up: scale not given: the % may be the effect or the level left; settings: candida albicans sc5314, 16 h
Answers are plain numbers, in %.

>>> endpoint_result("Nc1c(/C=N/NC(=O)c2ccncc2)ccc2c1C(=O)c1ccccc1C2=O")
20.3
>>> endpoint_result("OC(Cn1cncn1)(Cn1cncn1)c1ccc(F)cc1F")
19.9
>>> endpoint_result("COc1cccc(NC(=S)N(CCN(C)C)[C@@H](C)c2ccncc2)c1")
22.4

Now turn to the next molecule.
Data point: `O=C(NCCc1ccncc1)c1cnc2c(F)cccc2c1O` ; Activity = 23.1

---

target: Lanosterol 14-alpha demethylase (Candida albicans (strain SC5314 / ATCC MYA-2876) (Yeast)); test: Inhibition of CYP51 in Candida albicans SC5314 assessed as unidentified sterol content at 8 ug/ml after 16 hrs by GC/MS analysis (reference value: 5.8%); parameters: scale not given: the % may be the effect or the level left; conditions: candida albicans sc5314, 16 h
measure_name: Activity (%)
Answers are plain numbers, in %.

Please review the following examples before continuing.
>>> endpoint_result("COc1cccc(NC(=S)N(CCN(C)C)[C@@H](C)c2ccncc2)c1")
5.7
>>> endpoint_result("O=C(NCCc1ccncc1)c1cnc2c(F)cccc2c1O")
4.9
>>> endpoint_result("Nc1c(/C=N/NC(=O)c2ccncc2)ccc2c1C(=O)c1ccccc1C2=O")
4.3

Data point: `OC(Cn1cncn1)(Cn1cncn1)c1ccc(F)cc1F` ; Activity = 4.1
